B1: Azoarcus group I ribozyme (parent)
chain: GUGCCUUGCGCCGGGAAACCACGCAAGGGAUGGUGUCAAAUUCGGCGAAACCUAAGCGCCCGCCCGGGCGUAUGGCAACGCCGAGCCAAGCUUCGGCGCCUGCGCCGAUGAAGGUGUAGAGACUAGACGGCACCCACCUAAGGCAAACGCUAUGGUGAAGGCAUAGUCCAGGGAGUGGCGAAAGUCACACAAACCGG

- Variants of: B1
- assayComment: reverse-splicing fitness (ratio to wild type); higher = more active; in vitro selection; Mg2+ level not given
Use yes when the recorded reverse-splicing fitness is no lower than 0.009; use no when it is lower.

Check out these entries, answers already filled in.
Determine whether measured reverse-splicing fitness meets or exceeds 0.009 for A120G A145U C150A C169U U176C
yes

Another variant: A111G A145C C150U C169A
yes

Another variant: C82G A111G C150G C169A U176C
yes

Another variant: A111G A120G A145G C150A C169A U176G
no

Another variant: C82G A111G A120G A145U C169U
yes

Another variant: C82A A120G A145U C150A C169G U176C
yes

Another variant: A111G A145C C150G C169G U176C
no

Another variant: A111U A120U C150A U176A
yes

Another variant: C82G A111U A145G C150G C169G
no

Another variant: C82U A120U C150A C169G U176G
no

***
Determine whether measured reverse-splicing fitness meets or exceeds 0.009 for C82G A111U A120G A145U U176G
no

Another variant: C82A A111C A120C A145C C150A C169A
no

Another variant: C82U A120U U176A
yes

Another variant: C82U A111G A120G A145C C150G C169A U176A
no

Another variant: A120U A145C C150A C169U U176G
no

Another variant: C82A A120U A145U C150A C169A U176C
no

Another variant: C150U C169A U176A
yes

Another variant: C82U A145U C150U U176A
yes

Another variant: C82G A120U C150G C169U
no

Another variant: C82U A111G A120G A145G C169G U176A
yes

Another variant: C82G A111G A120U A145C C150A C169G U176C
no

Another variant: A111C A120U A145G C150G C169A U176G
no

Another variant: C82U A111G A120G C150G C169G U176G
no

Another variant: C82G A111C A145C C169G U176C
yes
